experiment: Equilibrium solubility of the D-tartrate salt in several solvents at 25° C.; format: physicochemical; details: organic solvent or mixture, thermodynamic from solid; n-Octanol, 25° C., measured as the free base
endpoint name: solubility (µg/mL)
Quick note: give the figure in µg/mL, leave out the unit.

Asked: In one line, give reported solubility of the entry O=C(O)C(O)C(O)C(=O)O.O=C(O[C@H]1CN2CCC1CC2)N(Cc1cc(F)c(F)c(F)c1)c1cccc(F)c1 [D-tartrate salt] .
Given back: 500

====

test: Salt screening of compound I with several acids (aspect of the salt); type: physicochemical; conditions: free base and acid in hot ethanol, cooled, solvent evaporated
endpoint name: Aspect of the salt

O=C(O)CC(=O)O
Oil
O=C(OC1CN2CCC1CC2)N(Cc1cc(F)c(F)c(F)c1)c1cccc(F)c1.O=S(=O)(O)c1ccccc1 (stereo not shown)
Oil
O=C(O)CC(O)C(=O)O.O=C(OC1CN2CCC1CC2)N(Cc1cc(F)c(F)c(F)c1)c1cccc(F)c1 [D-Malic]
Hygroscopic red foam
O=C(O)CC(O)C(=O)O.O=C(OC1CN2CCC1CC2)N(Cc1cc(F)c(F)c(F)c1)c1cccc(F)c1 (racemic) [DL-Malic]
Hygroscopic red foam
